Molecular target: SARS-CoV-2 S1 (antigen of the Carterra SPR kinetics) (SARS-CoV-2, UniProt P0DTC2 16-685)
Assay: Carterra SPR
MEASUREMENT KIND: koff (s⁻¹)
Give bare numbers, in s⁻¹.

These solved cases illustrate the format of a correct answer.
BINDER	UNIT ANNOTATION	REPORTED RESULT
1-5 (antibody, V domains shown, also called variant 1-5) VH: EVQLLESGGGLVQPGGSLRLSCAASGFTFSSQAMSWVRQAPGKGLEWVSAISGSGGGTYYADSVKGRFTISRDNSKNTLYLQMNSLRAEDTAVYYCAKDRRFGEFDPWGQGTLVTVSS VL: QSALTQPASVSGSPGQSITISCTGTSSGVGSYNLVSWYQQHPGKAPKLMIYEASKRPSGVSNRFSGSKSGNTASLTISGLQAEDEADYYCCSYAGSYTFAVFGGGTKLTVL	s⁻¹	0.054
1-23 (antibody, V domains shown, also called variant 1-23) VH: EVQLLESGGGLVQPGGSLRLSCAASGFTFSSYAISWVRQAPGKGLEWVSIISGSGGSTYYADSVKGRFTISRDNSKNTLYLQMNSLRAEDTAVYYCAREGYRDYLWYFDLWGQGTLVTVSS VL: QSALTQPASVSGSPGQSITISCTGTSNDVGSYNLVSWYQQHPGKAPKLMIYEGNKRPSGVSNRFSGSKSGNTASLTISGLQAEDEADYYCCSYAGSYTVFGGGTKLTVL	s⁻¹	0.159

Using the record for 1-2 (antibody, V domains shown, also called variant 1-2) VH: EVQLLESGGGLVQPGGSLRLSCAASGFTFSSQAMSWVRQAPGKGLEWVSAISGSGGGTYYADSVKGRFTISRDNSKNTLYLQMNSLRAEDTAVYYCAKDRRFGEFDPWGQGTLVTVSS VL: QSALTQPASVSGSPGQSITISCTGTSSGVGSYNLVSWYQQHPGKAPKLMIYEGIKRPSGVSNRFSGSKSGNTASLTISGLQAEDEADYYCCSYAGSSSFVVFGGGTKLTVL , state its measured koff.
0.0272

Source: patent US20210395344A1
